experimental_target: Translocator protein (Rattus norvegicus, UniProt P16257)
Sequence (P16257 whole entry, looked up): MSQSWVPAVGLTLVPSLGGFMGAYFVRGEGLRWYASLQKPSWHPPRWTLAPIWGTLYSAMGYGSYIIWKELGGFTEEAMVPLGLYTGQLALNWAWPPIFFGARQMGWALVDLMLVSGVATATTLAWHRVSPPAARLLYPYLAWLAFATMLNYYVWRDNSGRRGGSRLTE
test_protocol: Binding affinity against mitochondrial DBI complex (peripheral benzodiazepine receptor) using primary cultures of glial cells
Under this convention, rule met denotes Ki strictly below 80 nM and rule not met denotes Ki at or above 80 nM.

1) CCCCCCN(CCCCCC)C(=S)Cc1c(-c2ccc(F)cc2)[nH]c2ccccc12 : rule not met
2) CCCCCCN(CCCCCC)C(=O)Cc1c2n(c3ccccc13)Cc1ccccc1-2 : rule met
3) CCCN(CCC)C(=O)Cc1c(-c2ccccc2)[nH]c2cc(F)ccc12 : rule not met
4) CN(C)C(=O)Cc1c(-c2ccccc2)[nH]c2ccccc12 : rule not met
5) CCCCCCNC(=O)Cc1c(-c2ccc(F)cc2)[nH]c2ccccc12 : rule not met
6) CCCN(CCC)C(=O)Cc1c(-c2ccc(Cl)cc2)[nH]c2ccc(Cl)cc12 : rule met
7) CCCCCCN(CCCCCC)C(=O)Cc1c(-c2ccccc2)[nH]c2ccccc12 : rule met
8) CCN(CC)C(=O)Cc1c(-c2ccccc2)[nH]c2ccccc12 : rule not met
9) CCCCCCCCCCNC(=O)Cc1c(-c2ccccc2)[nH]c2ccccc12 : rule not met
10) CCCCCCCCN(CCCCCCCC)C(=O)Cc1c(-c2ccccc2)[nH]c2ccccc12 : rule not met
